METHOD SUMMARY: Luminescence activity of KAZ mutants (pCold II, E. coli) in supernatant and precipitate of crude enzyme solution
Type: biochemical
EXPERIMENTAL PARAMETERS: Table 3; pCold II, E. coli BL21; 5 μL precipitate; 0.5 μg coelenterazine; 60 seconds
OBSERVABLE: Relative Luminescence Activity (Imax) Precipitate
Quick one: just the number, no unit, thanks!

Some entries whose results are on file:
MOLECULE	RESULT
KAZ-Q11R: KAZ with single amino acid substitution Q11R (protein) FTLADFVGDWRQTAGYNQDQVLEQGGLSSLFQALGVSVTPIQKVVLSGENGLKADIHVIIPYEGLSGFQMGLIEMIFKVVYPVDDHHFKIILHYGTLVIDGVTPNMIDYFGRPYPGIAVFDGKQITVTGTLWNGNKIYDERLINPDGSLLFRVTINGVTGWRLCENILA	0.3
KAZ-V44I: KAZ with single amino acid substitution V44I, SEQ ID NO: 4 (protein) FTLADFVGDWQQTAGYNQDQVLEQGGLSSLFQALGVSVTPIQKIVLSGENGLKADIHVIIPYEGLSGFQMGLIEMIFKVVYPVDDHHFKIILHYGTLVIDGVTPNMIDYFGRPYPGIAVFDGKQITVTGTLWNGNKIYDERLINPDGSLLFRVTINGVTGWRLCENILA	0.6

Exam item: What value of measured Relative Luminescence Activity (Imax) Precipitate is listed for KAZ-I90V: KAZ with single amino acid substitution I90V (protein) FTLADFVGDWQQTAGYNQDQVLEQGGLSSLFQALGVSVTPIQKVVLSGENGLKADIHVIIPYEGLSGFQMGLIEMIFKVVYPVDDHHFKVILHYGTLVIDGVTPNMIDYFGRPYPGIAVFDGKQITVTGTLWNGNKIYDERLINPDGSLLFRVTINGVTGWRLCENILA ?
Marked response: 0.4

Origin of the recorded values: patent US10907134B2
